Values compiled from patent US20250339387A1.

- Tested on: NCI-H2122 cells
- assay.summary: Soft agar colony formation assay with MTT readout
- Assay type: cell-based
- condition.set: Homo sapiens, growth in soft agar, colonies stained with MTT, absorbance 570 nm, 3 independent experiments
quantity.name: IC50 (µM)
Numbers only, in µM.

Q: Any idea what IC50 was measured for Cl.Cl.O=C1c2c(O)ccc(O)c2C(=O)c2c(NCCNCCO)ccc(NCCNCCO)c21 [Mitoxantrone HCl, dihydrochloride] ?
Result: 0.25
